testSystem: 5-lipoxygenase (Rattus norvegicus, UniProt P12527)
Construct: (RBL-1, ATCC NO. CRL 1378) cells of rats were used as a 5-lipoxygenase enzyme source; endogenous in cells; host or cells: RBL-1 (rat basophilic leukemia) cells, ATCC CRL 1378
methodDescription: Inhibiting action on leukocyte 5-lipoxygenase in vitro (RBL-1 cells as enzyme source, 14C-arachidonic acid)
Format: biochemical, rats
conditionsUsed: 1 μM compound; RBL-1 rat cells; 37° C., 5 minutes; read-out: 5-lipoxygenase-inhibiting activity: Percent inhibition at 1 μM compound concentration
propertyName: inhibition at 1 µM (%)

Check out these entries, answers already filled in.
compound: [O-][n+]1c(CCCOC2CCCCO2)cc(OCc2ccccc2)c2ccccc21 (centres unmarked) [Example 13]
inhibition at 1 µM (%): 11.5
--
compound: NCCCCCCCCCCCc1cc(OCc2ccccc2)c2ccccc2[n+]1[O-] [Example 9]
inhibition at 1 µM (%): 27
--
compound: O=C(O)CCCCCCCCCCc1cc(OCc2ccccc2)c2ccccc2[n+]1[O-] [Example 8]
inhibition at 1 µM (%): 27.3
--
compound: [O-][n+]1c(CCCCCCCCCCC=NO)cc(OCc2ccccc2)c2ccccc21 [Example 11]
inhibition at 1 µM (%): 36.6
--
compound: O=CCCCCCCCCCCc1cc(OCc2ccccc2)c2ccccc2[n+]1[O-] [Example 7]
inhibition at 1 µM (%): 33.1

[1] [O-][n+]1c(CCCO)cc(OCc2ccccc2)c2ccccc21 [Example 2]
[2] [O-][n+]1c(CCCCCCCCCCCO)cc(OCc2ccccc2)c2ccccc21 [1-(2)]
[3] [O-][n+]1c(CCCCCCCCCCCNCc2ccccc2)cc(OCc2ccccc2)c2ccccc21 [Example 10]
[4] [O-][n+]1c(CCCCCCCCCCCOC2CCCCO2)cc(OCc2ccccc2)c2ccccc21 (centres unmarked) [Example 6]
[5] [O-][n+]1c(CCCOC2CCCCO2)cc(O)c2ccccc21 (centres unmarked) [Example 4]
Enquiry: Sort by inhibition at 1 µM, descending. Reply: labels, ordered per the request.
Return: 3, 4, 2, 1, 5
(3: 32.4%, 4: 20%, 2: 7.7%, 1: 2.7%, 5: 1.6%)

###

testSystem: 5-lipoxygenase (Rattus norvegicus, UniProt P12527)
Construct: (RBL-1, ATCC NO. CRL 1378) cells of rats were used as a 5-lipoxygenase enzyme source; endogenous in cells
methodDescription: Inhibiting action on leukocyte 5-lipoxygenase in vitro (RBL-1 cells as enzyme source, 14C-arachidonic acid)
conditionsUsed: RBL-1 rat cells; 37° C., 5 minutes
propertyName: IC50 (nM)

Here are 2 molecules together with their reported answers.
itemSmiles: [O-][n+]1c(CCCCCCCCCCCO)cc(O)c2ccccc21
testValue: 280

itemSmiles: [O-][n+]1c(CCCCCCCCCCCNCc2ccccc2)cc(O)c2ccccc21
testValue: 270

[1] [O-][n+]1c(CCCCCCCCCCCO)c(Br)c(O)c2ccccc21
[2] O=CCCCCCCCCCCc1cc(O)c2ccccc2[n+]1[O-]
[3] O=C(O)CCCCCCCCCCc1cc(O)c2ccccc2[n+]1[O-]
Enquiry: Please list these molecules in decreasing order of IC50. Reply: labels, ordered per the request.
Return: 3, 2, 1

###

testSystem: 5-lipoxygenase (Rattus norvegicus, UniProt P12527)
Construct: (RBL-1, ATCC NO. CRL 1378) cells of rats were used as a 5-lipoxygenase enzyme source; endogenous in cells
Sequence (P12527 1-673): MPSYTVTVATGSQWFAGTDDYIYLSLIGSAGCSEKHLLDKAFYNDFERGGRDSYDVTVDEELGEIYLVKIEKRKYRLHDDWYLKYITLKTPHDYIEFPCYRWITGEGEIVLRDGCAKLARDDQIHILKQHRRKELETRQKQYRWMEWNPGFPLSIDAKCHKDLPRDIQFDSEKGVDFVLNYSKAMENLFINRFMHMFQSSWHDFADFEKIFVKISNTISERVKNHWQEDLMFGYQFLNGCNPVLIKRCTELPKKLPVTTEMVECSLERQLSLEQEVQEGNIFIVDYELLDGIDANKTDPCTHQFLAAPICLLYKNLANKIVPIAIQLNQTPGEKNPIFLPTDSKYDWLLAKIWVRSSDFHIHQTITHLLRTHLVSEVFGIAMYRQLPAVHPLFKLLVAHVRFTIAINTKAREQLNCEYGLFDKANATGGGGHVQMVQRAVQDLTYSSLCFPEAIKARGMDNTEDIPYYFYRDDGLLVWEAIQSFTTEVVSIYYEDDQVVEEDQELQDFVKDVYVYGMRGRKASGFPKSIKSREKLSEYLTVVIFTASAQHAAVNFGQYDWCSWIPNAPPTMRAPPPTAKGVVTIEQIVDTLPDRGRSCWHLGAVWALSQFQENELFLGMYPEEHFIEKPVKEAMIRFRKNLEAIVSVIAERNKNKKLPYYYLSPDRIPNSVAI
methodDescription: Inhibiting action on leukocyte 5-lipoxygenase in vitro (RBL-1 cells as enzyme source, 14C-arachidonic acid)
conditionsUsed: RBL-1 rat cells; 37° C., 5 minutes
Structures can show the parent of a compound that is named as a salt.
propertyName: IC50 (nM)

compound: NCCCCCCCCCCCc1cc(O)c2ccccc2[n+]1[O-] [Example 16, hydrochloride]
testValue: 250

compound: [O-][n+]1c(CCCCCCCCCCCOC2CCCCO2)cc(O)c2ccccc21 (stereo not drawn)
testValue: 160

compound: COC(CCCCCCCCCCc1cc(O)c2ccccc2[n+]1[O-])OC
testValue: 180
